testedSystem: CYP2B6 (Homo sapiens, UniProt P20813)
Sequence (P20813 whole entry): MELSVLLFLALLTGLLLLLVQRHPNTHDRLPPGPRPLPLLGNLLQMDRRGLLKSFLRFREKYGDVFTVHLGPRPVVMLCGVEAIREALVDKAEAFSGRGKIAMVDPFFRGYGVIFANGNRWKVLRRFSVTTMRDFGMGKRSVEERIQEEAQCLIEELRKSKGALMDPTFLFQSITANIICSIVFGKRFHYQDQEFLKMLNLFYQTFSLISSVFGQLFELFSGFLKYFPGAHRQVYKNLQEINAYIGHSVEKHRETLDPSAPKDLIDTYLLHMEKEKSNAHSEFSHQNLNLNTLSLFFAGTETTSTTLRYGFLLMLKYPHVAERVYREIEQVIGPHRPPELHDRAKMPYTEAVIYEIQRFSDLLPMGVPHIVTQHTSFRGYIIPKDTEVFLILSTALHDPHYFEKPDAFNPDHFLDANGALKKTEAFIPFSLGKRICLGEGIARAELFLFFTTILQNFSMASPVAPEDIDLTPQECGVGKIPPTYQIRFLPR
experimentalProtocol: CYP2B6 Vivid CYP450 Blue fluorescent inhibition assay
Assay type: biochemical
pIC50: −log10 of the molar value.
Rule: pIC50 under 5 gives Not satisfied, otherwise Satisfied.

[in] pIC50 >= 5 for `C[C@]12CC[C@H]3[C@@H](CCC4=CC(=O)CC[C@@]43C)[C@@H]1CC[C@@H]2O` ?
[out] Not satisfied

----------
CYP3A4 Hillslope for assorted molecules
testedSystem: CYP3A4 (Homo sapiens, UniProt P08684)
Sequence (P08684 whole entry): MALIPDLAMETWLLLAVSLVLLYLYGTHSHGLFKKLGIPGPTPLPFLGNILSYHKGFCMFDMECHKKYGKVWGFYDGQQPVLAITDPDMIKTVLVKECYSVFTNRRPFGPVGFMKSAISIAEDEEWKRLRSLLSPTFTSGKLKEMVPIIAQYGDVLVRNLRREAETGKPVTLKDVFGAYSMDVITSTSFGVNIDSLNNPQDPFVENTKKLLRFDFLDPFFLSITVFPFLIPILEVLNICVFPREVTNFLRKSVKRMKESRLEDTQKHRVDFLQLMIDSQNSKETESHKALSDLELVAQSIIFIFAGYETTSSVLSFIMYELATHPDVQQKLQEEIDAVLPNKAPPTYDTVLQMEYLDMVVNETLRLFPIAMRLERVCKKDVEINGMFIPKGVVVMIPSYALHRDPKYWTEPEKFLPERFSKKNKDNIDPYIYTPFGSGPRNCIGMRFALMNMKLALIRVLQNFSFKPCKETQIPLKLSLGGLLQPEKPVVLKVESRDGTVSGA
experimentalProtocol: CYP3A4 Vivid CYP450 Red fluorescent inhibition assay
Format: biochemical
testContext: variable slope sigmoidal fit, GraphPad Prism 7.0
Simply state the number, no unit and no words.

[in] Would you mind telling me what CYP3A4 Hillslope value was observed for `C[C@]12CC[C@@H]3c4ccc(O)cc4CC[C@H]3[C@@H]1CC[C@@H]2O` ?
[out] −0.903

[in] Now the molecule `CC/C=C\C/C=C\C/C=C\C/C=C\C/C=C\C/C=C\CCC(=O)O`
[out] −5.0

[in] Ok, now `CCCCC/C=C\C/C=C\CCCCCCCC(=O)O`
[out] −4.46

[in] Entry `CC/C=C\C/C=C\C/C=C\CCCCCCCC(=O)O` please
[out] −0.701

[in] What would you report for `Oc1cc(Cl)ccc1Oc1ccc(Cl)cc1Cl` ?
[out] −1.46

[in] Then O=S1OCC2C(CO1)C1(Cl)C(Cl)=C(Cl)C2(Cl)C1(Cl)Cl (stereo not drawn) [Endosulfan] ?
[out] −0.261

More entries:
[in] // query CYP3A4 Hillslope value for entry `CCCCC/C=C\C/C=C\C/C=C\C/C=C\CCCC(=O)O`
[out] −4.08

[in] Note, next up: `CCOP(=S)(OCC)Oc1cc(C)nc(C(C)C)n1`
[out] −2.52

[in] Thanks! And `CCOP(=S)(OCC)Oc1ccc([N+](=O)[O-])cc1` ?
[out] −0.094

Origin of measurements: paper PMC8914530
